- Tested on: U2OS
- PROTOCOL SUMMARY: Cytotoxicity against human U2OS cells assessed as reduction in cell viability after 5 days by MTT assay
- Format: functional, cell-based
- CONDITION SET: 120 h
pIC50: −log10 of the molar value.
MEASUREMENT LABEL: pIC50

- CC1=C(C[C@H](C)O)[C@H](/C=C(C)/C=C(C)/C=C/C(=O)O)[C@@H]2C(=C1)C[C@@H](C)C(=O)[C@H]2C: 5.15
- C/C(=C\c1csc(C)n1)[C@@H]1C[C@@H]2O[C@]2(C)CCC[C@H](C)[C@H](O)[C@@H](C)C(=O)C(C)(C)[C@@H](O)CC(=O)O1: 9.98
- COC(=O)/C=C/C(C)=C/C(C)=C/[C@H]1C(CC(C)=O)=C(C)C=C2C[C@@H](C)C(=O)[C@@H](C)[C@@H]21: 4.65
- CC(=O)CC1=C(C)C=C2C[C@@H](C)C(=O)[C@@H](C)[C@@H]2[C@H]1/C=C(C)/C=C(C)/C=C/C(=O)O: 5.17

* * *

- Tested on: SK-OV-3
- PROTOCOL SUMMARY: Cytotoxicity against human SKOV3 cells assessed as reduction in cell viability after 5 days by MTT assay
- Type: functional, cell-based
- CONDITION SET: SK-OV-3, 120 h
Mark label 1 only for IC50 values smaller than 30 µM; exact matches and larger values are label 0.

* CC(=O)CC1=C(C)C=C2C[C@@H](C)[C@@H](O)[C@@H](C)[C@@H]2[C@H]1/C=C(C)/C=C(C)/C=C/C(=O)O | label 0
* C/C(=C\c1csc(C)n1)[C@@H]1C[C@@H]2O[C@]2(C)CCC[C@H](C)[C@H](O)[C@@H](C)C(=O)C(C)(C)[C@@H](O)CC(=O)O1 [PATUPILONE] | label 1
* CC(=O)CC1=C(C)C=C2C[C@@H](C)C(=O)[C@@H](C)[C@@H]2[C@H]1/C=C(C)/C=C(C)\C=C\C(=O)O | label 1
* CC(=O)CC1=C(C)C=C2C[C@@H](C)C(=O)[C@@H](C)[C@@H]2[C@H]1/C=C(C)/C=C(C)/C=C/C(=O)O | label 1
* COC(=O)/C=C/C(C)=C/C(C)=C/[C@H]1C(CC(C)=O)=C(C)C=C2C[C@@H](C)C(=O)[C@@H](C)[C@@H]21 | label 0
* CC1=C(C[C@H](C)O)[C@H](/C=C(C)/C=C(C)/C=C/C(=O)O)[C@@H]2C(=C1)C[C@@H](C)C(=O)[C@H]2C | label 1

* * *

Recorded IC50 values for a group of molecules are listed next.
- Test system: U2OS
- PROTOCOL SUMMARY: Cytotoxicity against human U2OS cells assessed as reduction in cell viability after 5 days by MTT assay
- Type: functional, cell-based
- CONDITION SET: 120 h
MEASUREMENT LABEL: IC50

* CC(=O)CC1=C(C)C=C2C[C@@H](C)[C@@H](O)[C@@H](C)[C@@H]2[C@H]1/C=C(C)/C=C(C)/C=C/C(=O)O | > 2510 µM
* CC(=O)CC1=C(C)C=C2C[C@@H](C)C(=O)[C@@H](C)[C@@H]2[C@H]1/C=C(C)/C=C(C)\C=C\C(=O)O | > 2520 µM
* COC(=O)/C=C/C(C)=C/C(C)=C/[C@H]1C(C[C@H](C)O)=C(C)C=C2C[C@@H](C)C(=O)[C@@H](C)[C@@H]21 | > 2430 µM

Values compiled from ChEMBL document CHEMBL4118027.
